These entries and their values trace back to paper PMC5733478.

- study system: human A3AR (Homo sapiens)
- Construct: expressed in transfected cells
- experiment summary: LOPAC library primary screen: single concentration (10 μM) inhibition of 25 nM CA200645 binding, PHERAstar FS
Where a name gives a salt, the structure may show the parent alone.
Listed below: % 25 nM CA200645 binding values for each entry.
Reply numerically in %, unit not repeated.

Some compounds with known % 25 nM CA200645 binding results, for comparison:
Ask: Look up % 25 nM CA200645 binding: `CC(=O)Oc1ccccc1C(=O)O`
Result: 102.5

Ask: What does the data say about its % 25 nM CA200645 binding? Entry: COc1ccc(CN(CCN(C)C)c2ccccn2)cc1 [Pyrilamine maleate]
Result: 84.6

Ask: For the compound shown here, Cl.c1ccc2sc(C3(N4CCCCC4)CCCCC3)cc2c1 [BTCP hydrochloride] , give the reported % 25 nM CA200645 binding.
Result: 94.3

Ask: Which % 25 nM CA200645 binding reading was recorded for the compound CCN1CCc2nc(N)oc2CC1.Cl.Cl [B-HT 933 dihydrochloride] ?
Result: 90.5

Turning now to a further compound:
Ask: Data request, read-out % 25 nM CA200645 binding, for `COc1ccc2c(c1)CC[C@@H]1[C@@H]2CC[C@]2(C)[C@@H](NCCCCCCN3C(=O)CCC3=O)CC[C@@H]12`
Result: 99.9

###

- study system: human A3AR (Homo sapiens, UniProt P0DMS8)
- Construct: expressed in transfected cells
- experiment summary: LOPAC library primary screen: single concentration (10 μM) inhibition of 25 nM CA200645 binding, PHERAstar FS
Rule: % 25 nM CA200645 binding under 90% gives No, otherwise Yes.

Ask: Evaluate C[C@@H]1O[C@@H]1P(=O)(O)O [Phosphomycin disodium] : % 25 nM CA200645 binding at minimum 90%?
Result: Yes

Ask: Check the entry `Cc1cc(NC2CCCCC2)nc(-n2nc(C)cc2C)n1` : does % 25 nM CA200645 binding equal or exceed 90%?
Result: No

Ask: API: above_or_equal(metric=% 25 nM CA200645 binding, cutoff=90%) for item O=C(O)/C=C\C(=O)O.c1cnc(N2CCN(Cc3ccc4c(c3)OCO4)CC2)nc1 [Piribedil maleate]
Result: Yes

***
Ask: hey, is % 25 nM CA200645 binding for this one >= 90%? `N[C@@H](C(=O)N[C@@H]1C(=O)N2C(C(=O)O)=C(Cl)CS[C@H]12)c1ccccc1`
Result: No

Ask: Evaluate CC(C)(C)c1ccc(C(O)CCCN2CCC(C(O)(c3ccccc3)c3ccccc3)CC2)cc1 (stereo not drawn) : % 25 nM CA200645 binding at minimum 90%?
Result: Yes

Ask: Threshold query (% 25 nM CA200645 binding >= 90%) on `CCN1C[C@]2(COC)[C@H](O)C[C@H](OC)[C@@]34[C@@H]5C[C@@]6(O)[C@H](OC(=O)c7ccccc7)[C@@H]5[C@@](OC(C)=O)([C@@H]([C@H](OC)[C@H]23)[C@@H]14)[C@@H](O)[C@@H]6OC`
Result: Yes

###

- study system: human A3AR (Homo sapiens, UniProt P0DMS8)
- Construct: expressed in transfected cells
- Sequence (P0DMS8 1-318): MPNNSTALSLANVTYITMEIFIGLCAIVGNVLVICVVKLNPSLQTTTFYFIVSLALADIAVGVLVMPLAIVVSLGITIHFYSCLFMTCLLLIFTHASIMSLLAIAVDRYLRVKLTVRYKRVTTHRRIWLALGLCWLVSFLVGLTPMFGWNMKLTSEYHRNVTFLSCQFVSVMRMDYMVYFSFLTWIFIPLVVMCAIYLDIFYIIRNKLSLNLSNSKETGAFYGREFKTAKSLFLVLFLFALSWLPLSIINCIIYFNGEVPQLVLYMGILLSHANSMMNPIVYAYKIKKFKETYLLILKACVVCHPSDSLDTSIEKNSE
- experiment summary: LOPAC library primary screen: single concentration (10 μM) inhibition of 25 nM CA200645 binding, PHERAstar FS
Counter-ions that a name gives are not always drawn.
Reported % 25 nM CA200645 binding values are given for each entry in this list.
Answer with the figure and its unit, nothing else.

Ask: Field request: % 25 nM CA200645 binding | item: Cc1cc([C@@H]2CCCN2C)on1.Cl [ABT-418 hydrochloride]
Result: 101.9 ± 4.7%

Ask: Name the recorded % 25 nM CA200645 binding for CC(N/C(=N\C#N)Nc1ccncc1)C(C)(C)C (centres unmarked) [Pinacidil] .
Result: 105.1 ± 8.3%

Ask: Returns the measured % 25 nM CA200645 binding for the input compound. Input: CC(=O)OCC(=O)[C@@]1(O)CC[C@H]2[C@@H]3CCC4=CC(=O)CC[C@]4(C)[C@H]3C(=O)C[C@@]21C [Cortisone 21-acetate]
Result: 92.1 ± 5.7%

Ask: Give the measured % 25 nM CA200645 binding of CC(C)NC[C@H](O)COc1cccc2ccccc12 [(S)-Propranolol hydrochloride] .
Result: 100.2 ± 8.9%

Ask: I'd like to know its % 25 nM CA200645 binding. The compound in question is Cc1cn([C@H]2C=C[C@@H](CO)O2)c(=O)[nH]c1=O [2',3'-didehydro-3'-deoxythymidine]
Result: 82.1 ± 11.9%

***
Ask: Could you tell me which % 25 nM CA200645 binding is on file for C[C@]12CC[C@@H]3c4ccc(O)cc4CC[C@H]3[C@@H]1CCC2=O [Estrone] ?
Result: 91.0 ± 8.5%

Ask: Which % 25 nM CA200645 binding value is on record for CN1CC[C@@]2(C)c3cc(OC(=O)Nc4ccccc4)ccc3N(C)[C@@H]12 [Phenserine] ?
Result: 81.1 ± 29.6%

Ask: If you can, please state the reported % 25 nM CA200645 binding value of COc1cc2c(CCNC(C)=O)c[nH]c2cc1O [6-Hydroxymelatonin] .
Result: 94.1 ± 9.8%
